# ASSAY METHOD TEXT: Stability testing of capsules at 25° C./60% RH in water impermeable blister pack
# Assay type: physicochemical
# MEASUREMENT CONDITIONS: 1.0 mg capsules of Example 29, 36 months
Below: a set of entries, each annotated with reported Decomposition products (% w/w), relative to the amount of tasquinimod in capsule.
PARAMETER: Decomposition products (% w/w), relative to the amount of tasquinimod in capsule

ENTRY SMILES | UNIT ABBREV | INEQUALITY SYMBOL | REPORTED
COc1cccc2c1c(O)c(C(=O)O)c(=O)n2C | % w/w | = | 0.07
CNc1ccc(C(F)(F)F)cc1 | % w/w | < | 0.05
COc1cccc2c1c(O)c(Cc1c(O)c3c(OC)cccc3n(C)c1=O)c(=O)n2C | % w/w | < | 0.05
COc1cccc2c1c(O)cc(=O)n2C | % w/w | = | 0.15

###

# ASSAY METHOD TEXT: Stability testing of capsules at 25° C./60% RH in water impermeable blister pack
# Assay type: physicochemical
# MEASUREMENT CONDITIONS: 0.5 mg capsules of Example 28, 24 months
PARAMETER: Decomposition products (% w/w), relative to the amount of tasquinimod in capsule

ENTRY SMILES | INEQUALITY SYMBOL | REPORTED
CNc1ccc(C(F)(F)F)cc1 | = | 0.07
COc1cccc2c1c(O)c(Cc1c(O)c3c(OC)cccc3n(C)c1=O)c(=O)n2C | = | 0.06
COc1cccc2c1c(O)cc(=O)n2C | = | 0.19
COc1cccc2c1c(O)c(C(=O)O)c(=O)n2C | < | 0.05

###

# ASSAY METHOD TEXT: Stability testing of capsules at 25° C./60% RH in water impermeable blister pack
# Type: physicochemical
# MEASUREMENT CONDITIONS: 0.5 mg capsules of Example 28, 18 months
Entries and their Decomposition products (% w/w), relative to the amount of tasquinimod in capsule
PARAMETER: Decomposition products (% w/w), relative to the amount of tasquinimod in capsule

ENTRY SMILES | INEQUALITY SYMBOL | REPORTED
COc1cccc2c1c(O)cc(=O)n2C | = | 0.16
CNc1ccc(C(F)(F)F)cc1 | = | 0.06
COc1cccc2c1c(O)c(C(=O)O)c(=O)n2C | < | 0.05
COc1cccc2c1c(O)c(Cc1c(O)c3c(OC)cccc3n(C)c1=O)c(=O)n2C | < | 0.05

###

Listed here: items and their measured Decomposition products (% w/w), relative to the amount of tasquinimod in capsule.
# ASSAY METHOD TEXT: Stability testing of capsules at 25° C./60% RH in water impermeable blister pack
# Assay type: physicochemical
# MEASUREMENT CONDITIONS: 0.5 mg capsules of Example 28, 48 months
# Text: In some embodiments, the method disclosed herein comprises storing (keeping) a sample of the pharmaceutical product for a period of time, preferably under selected conditions of temperature and humidity. The amount (or concentration) of tasquinimod and of at least one of compounds I, II, III and IV in the sample may preferably be determined at the beginning or before the storage period and at the end of the storage period. […]
PARAMETER: Decomposition products (% w/w), relative to the amount of tasquinimod in capsule

COMPOUND | REPORTED
CNc1ccc(C(F)(F)F)cc1 [Compound I, N-methyl-4-(trifluoromethyl)aniline] | 0.08 % w/w
COc1cccc2c1c(O)c(Cc1c(O)c3c(OC)cccc3n(C)c1=O)c(=O)n2C [Compound IV] | 0.11 % w/w
COc1cccc2c1c(O)c(C(=O)O)c(=O)n2C [Compound II] | <0.05 % w/w
COc1cccc2c1c(O)cc(=O)n2C [Compound III] | 0.36 % w/w

Cited source: patent US20240277693A1
